I'd be grateful if you could share measured IC50 for these entries.
biological target: human SCD1 (Homo sapiens (Human), UniProt O00767); assay: Yeast growth assay, strain expressing human SCD1 as the sole desaturase (reduced growth as surrogate for SCD inhibition); details: yeast with OLE1 deleted expressing human SCD1 from a plasmid; growth read as OD600 after 40 h at 30° C.; top drug concentration 33.3 μM
Sequence (O00767 whole entry): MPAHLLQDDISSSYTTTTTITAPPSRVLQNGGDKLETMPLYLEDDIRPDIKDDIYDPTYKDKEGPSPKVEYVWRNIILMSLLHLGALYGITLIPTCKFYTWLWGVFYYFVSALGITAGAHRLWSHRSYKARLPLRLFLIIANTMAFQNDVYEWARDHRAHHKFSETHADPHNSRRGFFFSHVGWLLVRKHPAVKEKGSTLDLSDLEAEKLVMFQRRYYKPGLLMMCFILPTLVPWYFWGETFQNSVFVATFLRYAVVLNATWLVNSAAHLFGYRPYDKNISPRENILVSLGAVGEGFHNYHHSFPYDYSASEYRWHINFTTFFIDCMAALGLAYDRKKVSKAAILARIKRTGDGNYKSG

Okay, here is my list. What is IC50 for each of these?
1. O=C(Nc1cnn(Cc2cccc(F)c2)c1)c1cc(CO)on1 [Compound 191]
2. COc1ccccc1-c1cc(C(=O)N2CCC(c3ccccc3)CC2)no1 [Compound 320]
3. COc1ccc([C@@H]2CCCN2C(=O)c2cc(-c3ccc4c(c3)OCO4)on2)cc1 [Compound 359]
4. O=C(c1cc(-c2ccccc2)on1)N1CCC(c2ccccc2)CC1 [Compound 314]

Ans:
["> 45 µM", "> 45 µM", "> 45 µM", "> 45 µM"]

Q: Find the recorded IC50 belonging to O=C(c1cc(-c2ccccc2Cl)on1)N1CCC(c2ccccc2)C1 (centres unmarked) [Compound 333] and report it.
Ans: > 45 µM

* * *

target: human SCD1 (Homo sapiens (Human), UniProt O00767); experiment: Yeast growth assay, strain expressing human SCD1 as the sole desaturase (reduced growth as surrogate for SCD inhibition); settings: yeast with OLE1 deleted expressing human SCD1 from a plasmid; growth read as OD600 after 40 h at 30° C.; top drug concentration 33.3 μM
Counter-ions that a name gives are not always drawn.
I'd be grateful if you could share measured IC50 for these entries.
One number for each entry, in µM.

Some solved entries appear below for comparison.
1. COc1ccc(C2CCCN2C(=O)c2cc(-c3ccc4nc(N(C)C)oc4c3)on2)cc1 (stereo not drawn)	15
2. O=C(c1cc(-c2cccnc2)on1)N1CCC(c2ccccc2)CC1 [Compound 315, trifluoroacetic acid salt]	3.84
3. Cc1nn(Cc2ccccc2)cc1NC(=O)c1cc(-c2ccccc2)on1	1.83

Okay, here is my list. What is IC50 for each of these?
1. O=C(c1cc(-c2ccc3c(c2)OCO3)on1)N1CCC(Oc2ccccc2)CC1
2. CC1(c2cc(C(=O)Nc3cnn(Cc4ccccc4)c3)no2)COC1

Ans:
[6.22, 0.21]

* * *

I'd be grateful if you could share measured pIC50 for these entries.
molecular target: human SCD5 (Homo sapiens (Human), UniProt Q86SK9); experiment: Yeast growth assay, strain expressing human SCD5 as the sole desaturase (reduced growth as surrogate for SCD inhibition); details: yeast with OLE1 deleted expressing human SCD5 from a plasmid; growth read as OD600 after 40 h at 30° C.; top drug concentration 33.3 μM
Sequence (Q86SK9 whole entry): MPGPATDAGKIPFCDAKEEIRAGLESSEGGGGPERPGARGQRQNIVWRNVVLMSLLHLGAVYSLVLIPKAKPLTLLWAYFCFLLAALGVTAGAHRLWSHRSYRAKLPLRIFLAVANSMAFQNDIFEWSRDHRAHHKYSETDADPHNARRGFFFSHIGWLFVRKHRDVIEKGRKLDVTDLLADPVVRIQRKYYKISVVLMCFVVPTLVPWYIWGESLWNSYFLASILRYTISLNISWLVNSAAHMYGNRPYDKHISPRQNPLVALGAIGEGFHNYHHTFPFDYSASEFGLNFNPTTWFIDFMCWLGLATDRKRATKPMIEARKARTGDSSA
pIC50: −log10 of the molar value.

1. N#Cc1ccc(Cn2cc(NC(=O)c3cc(-c4ccccc4)on3)cn2)s1	< 4.35

Okay, here is my list. What is pIC50 for each of these?
1. O=C(Nc1cnn(Cc2cccc(F)c2)c1)c1cc(-c2ncccc2F)on1
2. O=C(c1cc(-c2ccccc2)on1)N1CCC2(CCNC2)C1 (stereo not drawn)

Ans:
[5.74, "< 4.35"]

* * *

biological target: human SCD1 (Homo sapiens (Human), UniProt O00767); test: Yeast growth assay, strain expressing human SCD1 as the sole desaturase (reduced growth as surrogate for SCD inhibition); conditions: yeast with OLE1 deleted expressing human SCD1 from a plasmid; growth read as OD600 after 40 h at 30° C.; top drug concentration 33.3 μM
pIC50: −log10 of the molar value.
I'd be grateful if you could share measured pIC50 for these entries.

1. O=C(Nc1cnn(Cc2cnccc2C(F)(F)F)c1)c1cc(-c2ccncc2)on1	< 4.35
2. O=C(NC1CCNC1)c1cc(-c2ccco2)on1 (stereo not drawn)	< 4.35

Turning now to a further compound:
Q: Find the recorded pIC50 belonging to CC1(C(=O)Nc2ccccc2)CN(C(=O)c2cc(-c3ccccc3)on2)C1 and report it.
Ans: < 4.35
